Hello, the source for this data is ChEMBL document CHEMBL4477251, in case you need it.

# targetOfAssay: Sentrin-specific protease 1 (Homo sapiens)
# Sequence (Q9P0U3 whole entry): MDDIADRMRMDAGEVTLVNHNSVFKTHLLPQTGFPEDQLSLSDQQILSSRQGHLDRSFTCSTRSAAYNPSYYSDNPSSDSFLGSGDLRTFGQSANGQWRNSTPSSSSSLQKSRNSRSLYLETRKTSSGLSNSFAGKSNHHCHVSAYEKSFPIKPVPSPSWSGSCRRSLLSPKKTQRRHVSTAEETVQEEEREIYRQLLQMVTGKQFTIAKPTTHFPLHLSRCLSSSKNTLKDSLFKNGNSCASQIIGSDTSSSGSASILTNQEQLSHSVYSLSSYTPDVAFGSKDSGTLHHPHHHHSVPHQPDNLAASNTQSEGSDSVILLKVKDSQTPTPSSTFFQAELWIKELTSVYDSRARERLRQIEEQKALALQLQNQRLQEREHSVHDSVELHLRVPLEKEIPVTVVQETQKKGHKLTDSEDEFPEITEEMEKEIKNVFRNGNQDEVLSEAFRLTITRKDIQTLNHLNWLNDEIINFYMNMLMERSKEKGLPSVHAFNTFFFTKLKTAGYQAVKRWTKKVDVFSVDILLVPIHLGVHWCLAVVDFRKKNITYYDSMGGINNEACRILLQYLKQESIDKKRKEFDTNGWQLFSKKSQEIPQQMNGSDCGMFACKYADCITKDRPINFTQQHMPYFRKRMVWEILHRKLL
# assayDetails: Inhibition of full-length recombinant human 6His-tagged SENP1 expressed in Escherichia coli BL21 (DE3) preincubated for 15 mins followed by addition of SUMO1-AMC as substrate measured after 1 hr by fluorescence analysis
Reported IC50 is given for each of the following compounds.
Just the number please, in nM, no unit attached.

O=C1C(O)=C(c2ccc(O)cc2)C(=O)C(O)=C1c1ccc(O)cc1	3790
Cc1c(C)c(-c2ccc(O)cc2)c(O)c(O)c1-c1ccc(O)cc1	2710

Next item in the queue.
Quick note, IC50 for O=C(Cc1ccccc1)Oc1c(OC(=O)Cc2ccccc2)c(-c2ccc(O)cc2)c(O)c(O)c1-c1ccc(O)cc1 landed at 1640

----------
# targetOfAssay: Sentrin-specific protease 1 (Homo sapiens, UniProt Q9P0U3)
# assayDetails: Binding affinity to recombinant human 6His-tagged SENP1 catalytic domain expressed in Escherichia coli
readoutLabel: pKi
# pKi = -log10(concentration in molar units)

Entry under test: O=C(Cc1ccccc1)Oc1c(OC(=O)Cc2ccccc2)c(-c2ccc(O)cc2)c(O)c(O)c1-c1ccc(O)cc1 . Its pKi was 6.03

----------
# targetOfAssay: Sentrin-specific protease 1 (Homo sapiens, UniProt Q9P0U3)
# Sequence (Q9P0U3 whole entry): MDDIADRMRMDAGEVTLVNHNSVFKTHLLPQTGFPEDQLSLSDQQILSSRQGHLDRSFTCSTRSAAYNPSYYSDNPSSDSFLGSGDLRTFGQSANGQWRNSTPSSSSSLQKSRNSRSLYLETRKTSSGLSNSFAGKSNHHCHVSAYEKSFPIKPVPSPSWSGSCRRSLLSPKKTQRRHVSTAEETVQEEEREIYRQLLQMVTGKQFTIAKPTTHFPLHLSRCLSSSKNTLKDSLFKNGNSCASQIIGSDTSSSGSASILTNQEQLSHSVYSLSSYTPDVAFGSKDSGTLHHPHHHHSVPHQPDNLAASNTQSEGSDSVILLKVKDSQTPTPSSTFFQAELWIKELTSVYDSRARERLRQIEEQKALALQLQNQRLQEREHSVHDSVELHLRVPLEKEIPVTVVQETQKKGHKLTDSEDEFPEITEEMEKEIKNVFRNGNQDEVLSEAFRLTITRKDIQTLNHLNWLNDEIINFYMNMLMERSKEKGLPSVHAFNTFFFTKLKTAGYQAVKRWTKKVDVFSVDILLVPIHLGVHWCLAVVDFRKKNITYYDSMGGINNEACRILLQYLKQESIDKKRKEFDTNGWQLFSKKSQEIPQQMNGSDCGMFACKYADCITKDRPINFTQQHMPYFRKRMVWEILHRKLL
# assayDetails: Inhibition of recombinant human 6His-tagged SENP1 catalytic domain expressed in Escherichia coli preincubated for 15 mins followed by addition of SUMO1-AMC as substrate measured after 1 hr by fluorescence analysis
Listing of recorded pIC50 by entry.
Quick note: pIC50 values are minus log10 of concentrations in mol/L.

Please review the entries below; each comes with its answer.
O=C(Cc1ccccc1)Oc1c(OC(=O)Cc2ccccc2)c(-c2ccc(O)cc2)c(O)c(O)c1-c1ccc(O)cc1	5.72
Cc1c(C)c(-c2ccc(O)cc2)c(O)c(O)c1-c1ccc(O)cc1	5.42
Cc1c(C)c(-c2ccc(OCc3cn(CCCCCCNC(=O)CCCC[C@@H]4SC[C@@H]5NC(=O)N[C@@H]54)nn3)cc2)c(O)c(O)c1-c1ccc(O)cc1	5.01

Given the compound O=C1C(O)=C(c2ccc(O)cc2)C(=O)C(O)=C1c1ccc(O)cc1 and test system Sentrin-specific protease 1 (Homo sapiens, UniProt Q9P0U3), the measured pIC50 is 5.21

----------
# targetOfAssay: Sentrin-specific protease 1 (Homo sapiens, UniProt Q9P0U3)
# assayDetails: Binding affinity to full-length recombinant human 6His-tagged SENP1 expressed in Escherichia coli BL21 (DE3)
readoutLabel: pKi
Kindly note that pKi refers to -log10 of the concentration in mol/L and answer with the value alone.

Entry O=C(Cc1ccccc1)Oc1c(OC(=O)Cc2ccccc2)c(-c2ccc(O)cc2)c(O)c(O)c1-c1ccc(O)cc1 [VIALININ A] ; pKi = 5.97
